B1: OR4K15 (parent)
chain: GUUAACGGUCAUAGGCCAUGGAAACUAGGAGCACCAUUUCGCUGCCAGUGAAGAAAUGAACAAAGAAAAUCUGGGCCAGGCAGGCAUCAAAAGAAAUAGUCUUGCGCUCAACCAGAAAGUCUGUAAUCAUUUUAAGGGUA

Variants of: B1
PROTOCOL DESCRIPTION: self-cleavage, relative activity (ratio to wild type); higher = more cleavage; in vitro, sequencing; the parent is a self-cleaving ribozyme
Binned self-cleavage; ranges: category 1 (below 0.6), category 2 (0.6 to below 1), category 3 (1 or more)

[
  {
    "ENTRY SEQUENCE": "GUUAACGGUCAUAGGCCAUGGAAACUGGGAGCACCAUUUCGCUGCCAGUGAAGAAAUGAACAAAGAAAAUCUGGGCCAGGCUGGCAUCAAAAGAAAUAGUCUUGCGCUCAACCAGAAAGUCUGUAAUCAUUUUAAGGGUA [A27G A82U]",
    "QUALITATIVE LABEL": "category 1"
  }
]

Hi there! Could you help me figure out the category for GUUAACGGUCAUAGGCCAUGGAAACUAGGAGCACCAUUUCGCUGCCAGCGAAGAAAUGAACAAAGAAAAUCUGGGCCAGGCAGGCAUCAAAAGAAAUAGUCUUGCGCUCAACCGGAAAGUCUGUAAUCAUUUUAAGGGUA [U49C A114G] please? category 1

State the class of the variant shown: GUUGACGGUCACAGGCCAUGGAAACUAGGAGCACCAUUUCGCUGCCAGUGAAGAAAUGAACAAAGAAAAUCUGGGCCAGGCAGGCAUCAAAAGAAAUAGUCUUGCGCUCAACCAGAAAGUCUGUAAUCAUUUUAAGGGUA [A4G U12C] category 1

Which self-cleavage category applies to GUUAACGGUCAUAGGCCAUGGAAACUAGGAGCACCGUUUCGCUGCCAGUGAAGAAAUGAACAAAGAAUAUCUGGGCCAGGCAGGCAUCAAAAGAAAUAGUCUUGCGCUCAACCAGAAAGUCUGUAAUCAUUUUAAGGGUA [A36G A68U] here? category 3

Which self-cleavage category applies to GUUAACGGUCAUAGGCCAUGGAAACUAGGAGCACCAUUUCGCUGCCAGUGAAGAAAUGAACAAAGAAAAUCUGGGCCAGGCAGGCAUCAAAAGAAAUAGUCUUGCGCUCAACCAGAAUGUCUGUAACCAUUUUAAGGGUA [A118U U127C] here? category 1

Category lookup for the variant GUUAACGGUCAUAGGCCAUGGAAACUAGGAGCACCAUUUCGCAGCCAGUGAAGAAAUGAACAAAGAAAAUCUGGGCCAGGCAGGCAUCAAAAGAAAUAGUCUUGCGCUCAACCAGAAAGUCUGUAAUCACUUUAAGGGUA [U43A U130C] category 3
